- measurementTarget: T1, human activated protein C (human, UniProt P04070 43-197; P04070 212-461)
- T1 construct: also called human aPC; human APC
- procedureSummary: SPR (Biacore), 1:1 binding model
So I've got a bunch of binders here, and I need their Kd values.
Answers are plain numbers, in nM.

Please look at the items below and tell me Kd for each one, in order.
1. Hu1573-17 (antibody, V domains shown, Humanized IgG, human gamma 1 / kappa constant regions by vectors pCP-hCg1 and pCP-hck; also called H1573VH.1F + H1573Vk.2B) VH: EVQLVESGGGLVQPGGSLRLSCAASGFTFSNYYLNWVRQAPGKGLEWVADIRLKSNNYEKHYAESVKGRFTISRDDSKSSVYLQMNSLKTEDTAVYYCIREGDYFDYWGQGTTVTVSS VL: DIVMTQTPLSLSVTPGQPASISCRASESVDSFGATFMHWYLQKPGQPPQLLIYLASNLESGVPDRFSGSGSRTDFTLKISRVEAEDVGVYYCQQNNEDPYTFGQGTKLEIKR
2. Hu1573-10 (antibody, V domains shown, Humanized IgG, human gamma 1 / kappa constant regions by vectors pCP-hCg1 and pCP-hck; also called H1573VH.1D + H1573Vk.2A) VH: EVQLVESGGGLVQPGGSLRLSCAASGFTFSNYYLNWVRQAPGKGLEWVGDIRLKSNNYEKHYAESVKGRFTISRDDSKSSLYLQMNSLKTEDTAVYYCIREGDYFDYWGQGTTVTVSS VL: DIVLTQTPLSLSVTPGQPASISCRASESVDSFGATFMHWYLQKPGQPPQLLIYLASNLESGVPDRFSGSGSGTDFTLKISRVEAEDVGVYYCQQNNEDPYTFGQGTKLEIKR
3. Hu1573-1 (antibody, V domains shown, Humanized IgG, human gamma 1 / kappa constant regions by vectors pCP-hCg1 and pCP-hck; also called H1573VH.1 + H1573Vk.2C) VH: EVQLVESGGGLVQPGGSLRLSCAASGFTFSNYYLNWVRQAPGKGLEWVGDIRLKSNNYEKHYAESVKGRFTISRDDSKNSLYLQMNSLKTEDTAVYYCAREGDYFDYWGQGTTVTVSS VL: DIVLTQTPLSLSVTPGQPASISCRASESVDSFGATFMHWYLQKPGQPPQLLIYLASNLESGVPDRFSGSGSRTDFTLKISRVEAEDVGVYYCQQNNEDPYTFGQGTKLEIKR

1. 5.75
2. 4.38
3. 3.8
